Target: WRN [UniPro: Q14191 (WRN_HUMAN), N500-C946] (Homo sapiens (Human))
Sequence (Q14191 500-946): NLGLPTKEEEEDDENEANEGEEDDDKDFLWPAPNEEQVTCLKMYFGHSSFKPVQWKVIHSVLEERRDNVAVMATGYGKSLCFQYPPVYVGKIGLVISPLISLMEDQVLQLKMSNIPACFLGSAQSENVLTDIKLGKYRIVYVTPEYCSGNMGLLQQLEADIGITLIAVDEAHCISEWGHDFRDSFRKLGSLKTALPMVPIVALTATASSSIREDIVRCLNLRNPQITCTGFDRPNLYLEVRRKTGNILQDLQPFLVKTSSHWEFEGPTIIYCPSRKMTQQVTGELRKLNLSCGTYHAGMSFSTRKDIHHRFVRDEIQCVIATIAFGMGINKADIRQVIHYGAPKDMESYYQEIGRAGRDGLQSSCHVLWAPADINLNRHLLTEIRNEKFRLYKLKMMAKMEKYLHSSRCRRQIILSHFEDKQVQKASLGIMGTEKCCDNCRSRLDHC
Test: WRN ATPase assay (ADP-Glo)
Type: biochemical
Settings: WRN enzymatic activity assay
Measured IC50 by item

- CCc1c(N2CCN(C(=O)c3nc4cnccn4c3O)CC2)c(=O)n2nc(C3=CCOCC3)nc2n1CC(=O)Nc1ccc(C(F)(F)F)cc1Cl: 100 to 1000 nM

Inquiry: Fill in: IC50 of `CCc1c(N2CCN(C(=O)c3ccnc4cc[nH]c34)CC2)c(=O)n2nc(C3=CCOCC3)nc2n1CC(=O)Nc1ccc(Cl)cc1C(F)(F)F` is ___
Reply text: 100 to 1000 nM

Inquiry: What does the data say about its IC50? Entry: `CCc1c(N2CCN(C(=O)C(=O)Nc3nccs3)CC2)c(=O)n2nc(C3=CCOCC3)nc2n1CC(=O)Nc1ccc(C(F)(F)F)cc1Cl`
Reply text: < 100 nM

Inquiry: Any idea what its IC50 is? The molecule is `CCc1c(N2CCN(C(=O)c3cnn4cccc4c3O)CC2)c(=O)n2nc(C3=CCOCC3)nc2n1CC(=O)Nc1sc(C)cc1C`
Reply text: < 100 nM

Inquiry: # lookup: IC50 of `CCc1c(N2CCN(C(=O)C(=O)NC3CCCC3)CC2)c(=O)n2nc(C3=CCOCC3)nc2n1CC(=O)Nc1ccc(C(F)(F)F)cc1Cl`
Reply text: 100 to 1000 nM

Inquiry: For the molecule `CCc1c(N2CCN(C(=O)CNC(=O)c3cccc(NC(C)=O)c3)CC2)c(=O)n2nc(C3=CCOCC3)nc2n1CC(=O)Nc1ccc(C(F)(F)F)cc1Cl` , what IC50 is on record?
Reply text: < 100 nM
